Please provide measured pKi for the entries that follow.
# TESTED_TARGET: Kappa-type opioid receptor (Rattus norvegicus)
# Sequence (P34975 whole entry): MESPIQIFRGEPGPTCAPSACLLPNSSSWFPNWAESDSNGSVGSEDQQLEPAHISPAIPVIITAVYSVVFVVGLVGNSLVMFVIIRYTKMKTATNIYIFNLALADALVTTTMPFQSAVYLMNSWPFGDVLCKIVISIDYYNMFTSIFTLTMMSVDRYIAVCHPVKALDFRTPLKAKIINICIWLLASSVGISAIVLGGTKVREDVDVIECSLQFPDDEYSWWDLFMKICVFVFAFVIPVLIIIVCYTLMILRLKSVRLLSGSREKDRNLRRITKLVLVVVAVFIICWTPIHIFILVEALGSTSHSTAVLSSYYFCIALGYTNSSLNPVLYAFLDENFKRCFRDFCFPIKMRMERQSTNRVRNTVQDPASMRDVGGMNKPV
# TEST: Compound was evaluated for its ability to displace [3H]U-69593 in CHO cells expressing the cloned Opioid receptor kappa 1
Answers are plain numbers, as −log10 of the molar value.

Recorded pKi, per entry:
Oc1ccc2c3c1OC1c4[nH]c5ccccc5c4C[C@@]4(O)[C@@H](C2)N(CC2CCCCC2)CCC314 (some centres undefined)
5.95
Oc1ccc2c3c1O[C@H]1c4[nH]c5ccccc5c4C[C@@]4(O)[C@@H](C2)N(CC2CC2)CC[C@]314
8.24
Oc1ccc2c3c1OC1c4[nH]c5ccccc5c4C[C@@]4(O)[C@@H](C2)N(Cc2ccccc2)CCC314 (some centres undefined)
6.87

Okay, now this molecule:
The measured pKi associated with Oc1ccc2c3c1OC1c4[nH]c5ccccc5c4C[C@@]4(O)[C@@H](C2)N(CCC2CCCCC2)CCC314 (some centres undefined) reads 6.42
